Each entry below carries its reported Plant response rating, Morningglory.
# Tested on: morningglory
# experiment_summary: Test B pre/postemergence morningglory
# Type: in vivo, Ipomoea hederacea
# condition_parameters: Preemergence, Rate 125 g/ha; scale of 0 to 10 where 0 is no effect and 10 is complete control

{"columns": ["compound", "Plant response rating, Morningglory"],
 "data": [
  ["CC(C)N(C(=O)n1oc(=O)n(CC(F)F)c1=O)c1ccc(F)cc1 [Compound 710]", 0],
  ["Cc1nc(C(C)n2c(=O)on(C(=O)N(c3ccc(F)cc3)C(C)C)c2=O)sc1C (stereo not shown) [Compound 757]", 0],
  ["CC(=O)NCCn1c(=O)on(C(=O)N(c2ccc(F)cc2)C(C)C)c1=O [Compound 727]", 0],
  ["CC(C)N(C(=O)n1oc(=O)n(CC2=NOCC2)c1=O)c1ccc(F)cc1 [Compound 466]", 0]
]}
